# MIC per record follows
Test system: Mtb H37Rv (ATCC 27294)
Assay: microbe, parasite or virus in culture
Format: cell-based, Mycobacterium tuberculosis
Settings: Mycobacterium tuberculosis, read-out: Mtb MIC (ug/mL) (GAST)

Recall the recorded MIC for CCOP(=O)(CCCN(OCC1CCCCC1)C(C)=O)OCC [GSJ71] with Mtb H37Rv (ATCC 27294) and state it.
200 to 400 µg/mL

Cool, now CC(=O)N(CCCP(=O)(OCOC(=O)C(C)(C)C)OCOC(=O)C(C)(C)C)OCCCCc1ccccc1 [GSJ89]
6.25 to 12.5 µg/mL

What about this molecule? O=C(C1CCCCC1)N(O)CCCP(=O)([O-])O.[Na+] [ERJ 116]
> 200 µg/mL

Next record, please: CCOP(=O)(CCCN(O)C(=O)CCc1ccccc1)OCC [ERJ 70]
> 200 µg/mL

Field entry: CCOP(=O)(CCCN(O)C(=O)CCCc1ccccc1)OCC [ERJ 79]
> 200 µg/mL
